# Tested on: Rattus norvegicus
# experimentNotes: Effect on behavioural activity in rat assessed as cocaine-induced lever response at 10 mg/kg, po pretreated with cocaine for 45 mins by drug-discrimination studies
# Format: functional
Give Activity for every item shown.
Give bare numbers, in %.

Look over these answered cases.
Entry CC(NC1CCCC1)C(=O)c1cccc(Cl)c1 (configuration not stated) : reported Activity = ?
60

Using the record for CCC(NC(C)(C)C)C(=O)c1ccc(Cl)c(Cl)c1 (configuration not stated) , report its Activity.
34

Reported Activity for CC(NC(C)(C)C)C(=O)c1cccc(Br)c1 (configuration not stated) : what is it?
0

Dear colleague, I am looking for the recorded Activity of the following compound: CCCC(NC(C)(C)C)C(=O)c1ccc(Cl)c(Cl)c1 (configuration not stated)
33

Consider the compound shown here: CC(NC(C)(C)C)C(=O)c1ccccc1 (configuration not stated) What is its recorded Activity?
0

Which Activity value belongs to CC(NC(C)(C)C)C(=O)c1cccc(F)c1 (configuration not stated) ?
17

Find the recorded Activity belonging to CC(NC(C)(C)C)C(=O)c1cccc(Cl)c1 (configuration not stated) and report it.
17

Which Activity is listed for CCCCCCC(NC(C)(C)C)C(=O)c1cccc(Cl)c1 (configuration not stated) ?
0

Batch: Activity for all items listed.
1. CCCCC(NC(C)(C)C)C(=O)c1cccc(Cl)c1 (configuration not stated)
2. CC(NC1CC1)C(=O)c1cccc(Cl)c1 (configuration not stated)
3. CC(NC(C)(C)C)C(=O)c1cc(F)cc(F)c1 (configuration not stated)
4. CCCC(NC(C)(C)C)C(=O)c1cccc(Cl)c1 (configuration not stated)

1: 0; 2: 74; 3: 0; 4: 33

* * *

# targetUnderTest: Sodium-dependent serotonin transporter (Homo sapiens, UniProt P31645)
# Sequence (P31645 whole entry): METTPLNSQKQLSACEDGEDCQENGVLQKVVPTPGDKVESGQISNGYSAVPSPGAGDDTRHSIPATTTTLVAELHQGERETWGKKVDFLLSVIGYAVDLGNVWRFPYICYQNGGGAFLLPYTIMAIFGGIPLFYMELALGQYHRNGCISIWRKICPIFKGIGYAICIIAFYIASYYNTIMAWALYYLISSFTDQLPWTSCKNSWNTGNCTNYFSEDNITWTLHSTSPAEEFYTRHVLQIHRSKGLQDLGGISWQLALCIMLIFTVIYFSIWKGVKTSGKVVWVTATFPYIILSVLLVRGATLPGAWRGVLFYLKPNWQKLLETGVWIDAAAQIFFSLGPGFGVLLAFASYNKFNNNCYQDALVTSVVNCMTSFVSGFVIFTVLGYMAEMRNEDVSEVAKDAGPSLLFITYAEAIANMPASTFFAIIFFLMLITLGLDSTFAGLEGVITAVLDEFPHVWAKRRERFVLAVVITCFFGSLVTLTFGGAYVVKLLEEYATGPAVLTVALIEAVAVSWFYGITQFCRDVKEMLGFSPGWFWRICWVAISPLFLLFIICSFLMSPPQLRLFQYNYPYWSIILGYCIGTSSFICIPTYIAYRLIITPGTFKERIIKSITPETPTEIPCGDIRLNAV
pKi: −log10 of the molar value.
So I've got a bunch of compounds here, and I need their pKi values.

Quick one: give me pKi for each item below, same order please.
1. CC(C(=O)c1cccc(Cl)c1)N(C)C (configuration not stated)
2. CC(C(=O)c1cccc(Cl)c1)N(C)C(C)(C)C (configuration not stated)
3. CC(C)(C)NC1CCc2ccc(Cl)cc2C1=O (configuration not stated)
4. CC(NC(C)(C)C)C(=O)c1cccc(Br)c1 (configuration not stated)
5. CCCCCCC(NC(C)(C)C)C(=O)c1cccc(Cl)c1 (configuration not stated)
6. CCN(CC)C(C)C(=O)c1cccc(Cl)c1 (configuration not stated)

["< 5.00", "< 5.00", "< 5.00", "< 5.00", "< 5.00", "< 5.00"]

Look at this compound and give its reported pKi. CC(NC(C)(C)C)C(=O)c1ccccc1 (configuration not stated)
< 5.00

* * *

# System: Rattus norvegicus
# experimentNotes: Effect on behavioural activity in rat assessed as cocaine-induced lever response at 5 mg/kg, ip pretreated with cocaine for 30 mins by drug-discrimination studies
# Format: functional
# recordedConditions: route intraperitoneal
So I've got a bunch of molecules here, and I need their Activity values.
Numbers only, in %.

Completed entries (count: 3):
GET /values?readout=Activity&item= CCCC(NC(C)(C)C)C(=O)c1ccc(Cl)c(Cl)c1 (stereo not given)
33.3

Which Activity is listed for CCCCC(NC(C)(C)C)C(=O)c1cccc(Cl)c1 (stereo not given) ?
17.2

Would you kindly share the measured Activity for CC(NC(C)(C)C)C(=O)c1cccc(Br)c1 (stereo not given) ?
34.4

# per-item lookup of Activity; items listed below
1. CCC(NC(C)(C)C)C(=O)c1ccc(Cl)c(Cl)c1 (stereo not given)
2. CC(NC1CCCC1)C(=O)c1cccc(Cl)c1 (stereo not given)

[16.7, 0]
